Biological target: Melatonin receptor type 1B (Homo sapiens, UniProt P49286)
Sequence (P49286 whole entry): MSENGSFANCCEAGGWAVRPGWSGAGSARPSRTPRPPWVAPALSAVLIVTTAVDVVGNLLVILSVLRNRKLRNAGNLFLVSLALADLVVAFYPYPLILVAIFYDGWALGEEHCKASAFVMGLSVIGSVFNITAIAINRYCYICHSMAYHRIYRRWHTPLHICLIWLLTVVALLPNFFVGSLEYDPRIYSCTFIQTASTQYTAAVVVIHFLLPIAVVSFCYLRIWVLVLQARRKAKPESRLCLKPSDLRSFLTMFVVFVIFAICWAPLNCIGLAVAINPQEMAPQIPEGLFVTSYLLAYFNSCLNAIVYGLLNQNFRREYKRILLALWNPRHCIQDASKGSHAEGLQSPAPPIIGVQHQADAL
Assay: Binding affinity to human MT2 expressed in CHO cells
Format: cell-based
MEASURED_ATTRIBUTE: Ki (pM)

> print(dat)
                                   molecule  readout.value
1  CCC(=O)NCC[C@@H]1CCc2ccc3c(c21)CCO3 [RAMELTEON]            112

====

Assay: Oral bioavailability in Sprague-Dawley rat at 1 mg/kg administered as casette dosing by LC/MS/MS analysis
Assay type: ADME, organism-based
Conditions: in vivo
Quick rule: bioavailability of at least 10% means 1.0, below that means 0.0.

> print(dat)
                                   compound  classification
1  CC(=O)NCCC1CCc2ccn3nc(C)cc3c21 (configuration not stated)             1.0
2  CC(=O)NCCC1CCc2ccc3nc(C)sc3c21 (configuration not stated)             0.0
3  CCC(=O)NCCC1CCc2ccc3nn(C)cc3c21 (configuration not stated)             1.0
4  CC(=O)NCCC1CCc2ccc3nn(C)cc3c21 (configuration not stated)             1.0
5  CCC(=O)NCCC1CCc2ccc3nc(C)sc3c21 (configuration not stated)             0.0
6  CCC(=O)NCCC1CCc2ccc3nc(C)oc3c21 (configuration not stated)             0.0
7  CC(=O)NCCC1CCc2ccc3nc(C)oc3c21 (racemic)             1.0
